Target under test: pooled human liver microsomes (HLM)
Test name: Inhibition of fenofibrate hydrolysis in pooled human liver microsomes (Ki)
Type: in vitro ADME
Condition label: matrix HLM; substrate fenofibrate; read-out: Ki, Competitive inhibition model
Reported Ki by item:
Quantity: Ki

{"Compound": "O=[N+]([O-])c1ccc(OP(=O)(O)Oc2ccc([N+](=O)[O-])cc2)cc1 [BNP, bis(4-nitrophenyl)-phosphate]", "Val": "1.67 µM"}
{"Compound": "O=c1c(O)c(-c2ccc(O)cc2)oc2cc(O)cc(O)c12", "Val": "110 µM"}

* * *

Target under test: pooled human liver microsomes (HLM)
Test name: Inhibition of fenofibrate hydrolysis in pooled human liver microsomes (Ki)
Assay type: in vitro ADME
Condition label: matrix HLM; substrate fenofibrate; read-out: Ki, Non-Competitive inhibition model
Experimental: FIGS. 6A-6D. […] The reaction was stopped, supernatant collected and fenofibric acid level was determined by LC-MS/MS. Ki values were calculated, and the type of inhibition was determined by fitting data to enzyme inhibition models: competitive (FIG. 6A), non-competitive (FIG. 6B), uncompetitive (FIG. 6C) and mixed (FIG. 6D) models. The samples were analyzed in duplicates and represented as mean values. […]
Quantity: Ki (µM)

{"Molecule": "O=c1c(O)c(-c2ccc(O)cc2)oc2cc(O)cc(O)c12", "Unit annotation": "µM", "Val": 235}
{"Molecule": "O=[N+]([O-])c1ccc(OP(=O)(O)Oc2ccc([N+](=O)[O-])cc2)cc1 [BNP, bis(4-nitrophenyl)-phosphate]", "Unit annotation": "µM", "Val": 5.17}

* * *

Target under test: pooled human liver microsomes (HLM)
Test name: Inhibition of fenofibrate hydrolysis in pooled human liver microsomes (Ki)
Type: in vitro ADME
Condition label: matrix HLM; substrate fenofibrate; read-out: Ki, Mixed inhibition model
Quantity: Ki (nM)

{"Compound": "O=[N+]([O-])c1ccc(OP(=O)(O)Oc2ccc([N+](=O)[O-])cc2)cc1 [BNP, bis(4-nitrophenyl)-phosphate]", "Val": 1660}

* * *

Reported Ki by item:
Target under test: recombinant hCES1b (Homo sapiens)
Test name: Inhibition of hCES1b-mediated fenofibrate hydrolysis (Ki)
Assay type: biochemical
Condition label: matrix hCES1b; substrate fenofibrate; read-out: Ki, Non-Competitive inhibition model
Quantity: Ki (µM)

{"Compound": "O=[N+]([O-])c1ccc(OP(=O)(O)Oc2ccc([N+](=O)[O-])cc2)cc1 [BNP, bis(4-nitrophenyl)-phosphate]", "Quantity": "Ki", "Unit annotation": "µM", "Val": 0.17}
{"Compound": "O=c1c(O)c(-c2ccc(O)cc2)oc2cc(O)cc(O)c12 [Kaempferol]", "Quantity": "Ki", "Unit annotation": "µM", "Val": 101}

* * *

Target under test: recombinant hCES1b (Homo sapiens, UniProt P23141)
Sequence (P23141 18-567): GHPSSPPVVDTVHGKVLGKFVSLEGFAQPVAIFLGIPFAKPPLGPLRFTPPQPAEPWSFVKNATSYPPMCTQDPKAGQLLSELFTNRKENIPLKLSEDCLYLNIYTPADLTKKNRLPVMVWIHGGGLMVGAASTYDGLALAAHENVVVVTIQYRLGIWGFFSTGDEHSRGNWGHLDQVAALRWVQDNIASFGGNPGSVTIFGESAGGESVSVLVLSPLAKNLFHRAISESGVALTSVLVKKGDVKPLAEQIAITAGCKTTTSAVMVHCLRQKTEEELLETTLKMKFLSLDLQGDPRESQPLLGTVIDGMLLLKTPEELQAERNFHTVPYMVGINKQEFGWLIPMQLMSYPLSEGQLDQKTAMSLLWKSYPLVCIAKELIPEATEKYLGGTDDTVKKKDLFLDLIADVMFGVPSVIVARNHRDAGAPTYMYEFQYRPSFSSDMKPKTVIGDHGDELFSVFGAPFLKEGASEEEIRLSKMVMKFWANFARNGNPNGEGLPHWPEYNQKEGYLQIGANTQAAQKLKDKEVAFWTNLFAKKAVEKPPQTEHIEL
Test name: Inhibition of hCES1b-mediated fenofibrate hydrolysis (Ki)
Type: biochemical
Condition label: matrix hCES1b; substrate fenofibrate; read-out: Ki, Mixed inhibition model
pKi: −log10 of the molar value.

{"Compound": "O=[N+]([O-])c1ccc(OP(=O)(O)Oc2ccc([N+](=O)[O-])cc2)cc1 [BNP, bis(4-nitrophenyl)-phosphate]", "pKi": 7.36}
{"Compound": "O=c1c(O)c(-c2ccc(O)cc2)oc2cc(O)cc(O)c12 [Kaempferol]", "pKi": 4.00}

* * *

Target under test: pooled human liver microsomes (HLM)
Test name: Inhibition of fenofibrate hydrolysis in pooled human liver microsomes (Ki)
Format: in vitro ADME
Condition label: matrix HLM; substrate fenofibrate; read-out: Ki, Uncompetitive inhibition model

{"Compound": "O=[N+]([O-])c1ccc(OP(=O)(O)Oc2ccc([N+](=O)[O-])cc2)cc1 [BNP, bis(4-nitrophenyl)-phosphate]", "Ki": "3.02 µM"}
{"Compound": "O=c1c(O)c(-c2ccc(O)cc2)oc2cc(O)cc(O)c12", "Ki": "131 µM"}

Reference for the values: patent US20220401404A1
